# target.or.system: UniProt:P31422
# Sequence (P31422 whole entry): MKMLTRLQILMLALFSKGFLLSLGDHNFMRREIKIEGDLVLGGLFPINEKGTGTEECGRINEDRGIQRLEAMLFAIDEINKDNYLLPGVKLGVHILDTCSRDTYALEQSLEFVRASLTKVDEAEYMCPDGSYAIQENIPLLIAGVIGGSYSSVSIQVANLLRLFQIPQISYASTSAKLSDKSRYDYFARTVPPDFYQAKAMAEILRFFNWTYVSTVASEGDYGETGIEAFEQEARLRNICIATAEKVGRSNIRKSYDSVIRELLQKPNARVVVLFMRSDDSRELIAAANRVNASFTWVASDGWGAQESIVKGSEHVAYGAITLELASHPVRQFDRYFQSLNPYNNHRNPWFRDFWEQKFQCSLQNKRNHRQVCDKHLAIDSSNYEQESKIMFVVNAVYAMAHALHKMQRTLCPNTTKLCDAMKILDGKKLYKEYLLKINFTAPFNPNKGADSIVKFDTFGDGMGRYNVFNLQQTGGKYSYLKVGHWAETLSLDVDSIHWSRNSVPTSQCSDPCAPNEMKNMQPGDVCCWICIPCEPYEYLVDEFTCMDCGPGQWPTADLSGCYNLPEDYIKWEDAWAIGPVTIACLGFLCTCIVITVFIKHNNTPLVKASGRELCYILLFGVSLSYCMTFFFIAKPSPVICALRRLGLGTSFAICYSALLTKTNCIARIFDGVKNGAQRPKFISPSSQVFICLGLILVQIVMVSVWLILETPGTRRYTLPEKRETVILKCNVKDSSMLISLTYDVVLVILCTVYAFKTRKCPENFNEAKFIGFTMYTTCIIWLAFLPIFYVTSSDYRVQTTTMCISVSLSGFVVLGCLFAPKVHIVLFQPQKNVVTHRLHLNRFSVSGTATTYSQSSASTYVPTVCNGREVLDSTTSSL
# protocol: Concentration required to inhibit metabotropic glutamate receptor 3 activity of rat expressed in CHO cells
parameter: IC50 (nM)

{"smiles.structure": "N[C@]1(C(=O)O)[C@H]2[C@@H](C[C@H]1OCc1ccc(Cl)c(Cl)c1)[C@]2(F)C(=O)O", "target.or.system": "UniProt:P31422", "value": 24}

* * *

Below: a set of entries, each annotated with reported Tmax.
# protocol: Maximum time required to achieve peak plasma concentration in rat plasma upon oral dose of 10 mg/kg
# Format: ADME, organism-based
# Design: dose 10 mg/kg, route oral

{"smiles.structure": "N[C@]1(C(=O)O)[C@H]2[C@@H](C[C@H]1OCc1ccc(F)c(F)c1)[C@]2(F)C(=O)O", "Tmax (h)": 1}
{"smiles.structure": "N[C@]1(C(=O)O)[C@H]2[C@@H](C[C@H]1OCc1ccc(Cl)cc1)[C@]2(F)C(=O)O", "Tmax (h)": 3}
{"smiles.structure": "N[C@]1(C(=O)O)[C@H]2[C@@H](C[C@H]1OC(c1ccccc1)c1ccccc1)[C@]2(F)C(=O)O", "Tmax (h)": 1}
{"smiles.structure": "N[C@]1(C(=O)O)[C@H]2[C@@H](C[C@H]1OCc1ccc3ccccc3c1)[C@]2(F)C(=O)O", "Tmax (h)": 3}
{"smiles.structure": "N[C@]1(C(=O)O)[C@H]2[C@@H](C[C@H]1OCc1ccc(Cl)c(Cl)c1)[C@]2(F)C(=O)O", "Tmax (h)": 6}

* * *

# protocol: Half-life in rat upon oral dose of 30 mg/kg
# Assay type: ADME, organism-based
# Design: dose 30 mg/kg, route oral
# experimental.context: in vivo
Decide by half-life: equal to or exceeding 3 h means Yes, less means No.

{"smiles.structure": "N[C@]1(C(=O)O)[C@H]2[C@@H](C[C@H]1OCc1ccc(Cl)c(Cl)c1)[C@]2(F)C(=O)O", "label.class": "No"}
{"smiles.structure": "N[C@]1(C(=O)O)[C@H]2[C@@H](C[C@H]1OCc1ccc(F)c(F)c1)[C@]2(F)C(=O)O", "label.class": "Yes"}
{"smiles.structure": "N[C@]1(C(=O)O)[C@H]2[C@@H](C[C@H]1OCc1ccc(Cl)cc1)[C@]2(F)C(=O)O", "label.class": "Yes"}
{"smiles.structure": "N[C@]1(C(=O)O)[C@H]2[C@@H](C[C@H]1OC(c1ccccc1)c1ccccc1)[C@]2(F)C(=O)O", "label.class": "Yes"}

* * *

# target.or.system: Metabotropic glutamate receptor 4 (Rattus norvegicus, UniProt P31423)
# Sequence (P31423 whole entry): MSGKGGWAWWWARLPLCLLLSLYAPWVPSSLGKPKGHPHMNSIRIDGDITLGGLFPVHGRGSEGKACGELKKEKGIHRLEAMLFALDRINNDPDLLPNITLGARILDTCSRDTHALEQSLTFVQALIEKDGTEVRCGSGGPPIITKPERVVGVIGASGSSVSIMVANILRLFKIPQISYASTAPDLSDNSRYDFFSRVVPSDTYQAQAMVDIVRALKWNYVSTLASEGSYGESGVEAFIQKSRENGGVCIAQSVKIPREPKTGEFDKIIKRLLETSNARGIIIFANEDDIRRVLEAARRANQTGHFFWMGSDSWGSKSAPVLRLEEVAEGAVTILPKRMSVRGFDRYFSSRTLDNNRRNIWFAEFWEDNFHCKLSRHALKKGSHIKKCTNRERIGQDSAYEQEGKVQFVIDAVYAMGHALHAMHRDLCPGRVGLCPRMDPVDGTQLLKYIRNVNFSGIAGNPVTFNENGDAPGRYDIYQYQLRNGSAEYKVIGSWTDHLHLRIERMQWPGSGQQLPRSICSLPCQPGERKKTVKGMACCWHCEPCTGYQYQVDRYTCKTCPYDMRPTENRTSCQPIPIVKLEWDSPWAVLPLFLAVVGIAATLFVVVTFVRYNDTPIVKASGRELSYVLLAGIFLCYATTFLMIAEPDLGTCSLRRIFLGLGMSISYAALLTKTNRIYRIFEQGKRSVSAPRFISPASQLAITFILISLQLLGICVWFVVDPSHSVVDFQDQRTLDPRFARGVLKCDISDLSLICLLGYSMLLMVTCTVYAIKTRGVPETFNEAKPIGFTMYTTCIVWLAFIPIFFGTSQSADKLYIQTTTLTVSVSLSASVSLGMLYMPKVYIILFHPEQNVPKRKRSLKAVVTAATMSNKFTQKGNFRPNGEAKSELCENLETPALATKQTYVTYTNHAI
# protocol: Concentration required to inhibit metabotropic glutamate receptor 4 activity of rat expressed in CHO cells
pIC50: −log10 of the molar value.
Below: a set of entries, each annotated with reported pIC50.

{"smiles.structure": "N[C@](CC1c2ccccc2Oc2ccccc21)(C(=O)O)[C@H]1C[C@@H]1C(=O)O", "pIC50": 5.58}
{"smiles.structure": "N[C@]1(C(=O)O)[C@H]2[C@@H](C[C@H]1OCc1ccc(Cl)c(Cl)c1)[C@]2(F)C(=O)O", "pIC50": 5.76}

* * *

# protocol: Peak plasma concentration in rats upon oral dose of 30 mg/kg
# Assay type: ADME, organism-based
# Design: dose 30 mg/kg, route oral
# experimental.context: rat
Below: a set of entries, each annotated with reported Cmax.

{"smiles.structure": "N[C@]1(C(=O)O)[C@H]2[C@@H](C[C@H]1OC(c1ccccc1)c1ccccc1)[C@]2(F)C(=O)O", "Cmax": "312 ng/mL"}
{"smiles.structure": "N[C@]1(C(=O)O)[C@H]2[C@@H](C[C@H]1OCc1ccc(Cl)c(Cl)c1)[C@]2(F)C(=O)O", "Cmax": "2960 ng/mL"}
{"smiles.structure": "N[C@]1(C(=O)O)[C@H]2[C@@H](C[C@H]1OCc1ccc(Cl)cc1)[C@]2(F)C(=O)O", "Cmax": "651 ng/mL"}
{"smiles.structure": "N[C@]1(C(=O)O)[C@H]2[C@@H](C[C@H]1OCc1ccc3ccccc3c1)[C@]2(F)C(=O)O", "Cmax": "965 ng/mL"}
{"smiles.structure": "N[C@]1(C(=O)O)[C@H]2[C@@H](C[C@H]1OCc1ccc(F)c(F)c1)[C@]2(F)C(=O)O", "Cmax": "635 ng/mL"}
